// data source = patent US6914045B2

test system: Staphylococcus sp.; test: in vitro antibacterial evaluation, MIC by broth dilution; assay type: cell-based; settings: strain GC 4544; broth dilution, 18 hours at 35° C.
MEASURE: MIC Staphylococcus aureus (GC 4544)
Please provide the amount together with its unit, number first.

Form entry - test system: Staphylococcus sp.; read-out: MIC Staphylococcus aureus (GC 4544); compound: COc1ccc(Oc2cccc(-c3nc4cc(CC5NC(=O)C(C(C)c6ccccc6)NC(=O)CNC(=O)C(CO)NC(=O)C(C(O)C6CNC(=N)N6C6OC(CO)C(O)C(O)C6O)NC(=O)C(C(O)C6CNC(=N)N6)NC5=O)ccc4o3)c2)cc1 (stereo not shown)
8 µg/mL

Requested read-out MIC Staphylococcus aureus (GC 4544), target or system Staphylococcus sp., entry CC(c1ccccc1)C1NC(=O)CNC(=O)C(CO)NC(=O)C(C(O)C2CN(c3ncccn3)C(=N)N2C2OC(CO)C(O)C(O)C2O)NC(=O)C(C(O)C2CNC(=Nc3ncccn3)N2)NC(=O)C(Cc2ccc(OC3OC(CO)C(OC4OC5COC6(OC5C(O)C4O)C4CC5CC(C4)CC6C5)C(O)C3O)cc2)NC1=O (stereo not shown)
32 µg/mL

Missing value: MIC Staphylococcus aureus (GC 4544), Staphylococcus sp., entry N=C1NCC(C(O)C2NC(=O)C(CC3CCC(OC4OC(CO)C(OC5OC6COC7(OC6C(O)C5O)C5CC6CC(C5)CC7C6)C(O)C4O)CC3)NC(=O)C(CC3CCCCC3)NC(=O)CNC(=O)C(CO)NC(=O)C(C(O)C3CNC(=N)N3C3OC(CO)C(O)C(O)C3O)NC2=O)N1 (single isomer, unassigned) . Fill in?
64 µg/mL

Record lookup: for Staphylococcus sp., what MIC Staphylococcus aureus (GC 4544) belongs to CC(c1ccccc1)C1NC(=O)CNC(=O)C(CO)NC(=O)C(C(O)C2CNC(=N)N2C2OC(CO)C(O)C(O)C2O)NC(=O)C(C(O)C2CNC(=N)N2)NC(=O)C(Cc2ccc(OC3OC(CO)C(OC4OC5COC6(CCCCC6C)OC5C(O)C4O)C(O)C3O)cc2)NC1=O (stereo not shown) ?
8 µg/mL

---

tested on: Staphylococcus sp.; test: in vitro antibacterial evaluation, MIC by broth dilution; format: cell-based; conditions: broth dilution, 18 hours at 35° C.
MEASURE: MIC Staphylococcus haemolyticus (GC 4546)
Give your result as the value with the unit written after it.

Fill in: MIC Staphylococcus haemolyticus (GC 4546) of CC(c1ccccc1)C1NC(=O)CNC(=O)C(CO)NC(=O)C(C(O)C2CNC(=N)N2C2OC(CO)C(O)C(O)C2O)NC(=O)C(C(O)C2CNC(=N)N2)NC(=O)C(Cc2ccc(OC3OC(CO)C(OC4OC(COCc5ccc(Oc6ccccc6)cc5)C(O)C(O)C4O)C(O)C3O)cc2)NC1=O (centres unmarked) is ___
2 µg/mL

Consider the molecule CC(C)CC1OCC2OC(OC3C(CO)OC(Oc4ccc(CC5NC(=O)C(C(C)c6ccccc6)NC(=O)CNC(=O)C(CO)NC(=O)C(C(O)C6CNC(=N)N6C6OC(CO)C(O)C(O)C6O)NC(=O)C(C(O)C6CNC(=N)N6)NC5=O)cc4)C(O)C3O)C(O)C(O)C2O1 (centres unmarked) and give its measured MIC Staphylococcus haemolyticus (GC 4546).
1 µg/mL

Entry CC(c1ccccc1)C1NC(=O)CNC(=O)C(CO)NC(=O)C(C(O)C2CNC(=N)N2C2OC(CO)C(O)C(O)C2O)NC(=O)C(C(O)C2CNC(=N)N2)NC(=O)C(Cc2ccc(OC3OC(CO)C(OC4OC(COCC=Cc5ccccc5)C(O)C(O)C4O)C(O)C3O)cc2)NC1=O (centres unmarked) has what MIC Staphylococcus haemolyticus (GC 4546)?
4 µg/mL

Which MIC Staphylococcus haemolyticus (GC 4546) value belongs to CC(C)CC(=O)OC1C(OC2C(CO)OC(Oc3ccc(CC4NC(=O)C(C(C)c5cccs5)NC(=O)CNC(=O)C(CO)NC(=O)C(C(O)C5CNC(=N)N5C5OC(CO)C(O)C(O)C5O)NC(=O)C(C(O)C5CNC(=N)N5)NC4=O)cc3)C(O)C2O)OC(CO)C(O)C1O (centres unmarked) [Example 265a] ?
8 µg/mL

Which MIC Staphylococcus haemolyticus (GC 4546) value belongs to CC(c1ccccc1)C1NC(=O)CNC(=O)C(CO)NC(=O)C(C(O)C2CNC(=N)N2C2OC(CO)C(O)C(O)C2O)NC(=O)C(C(O)C2CNC(=N)N2)NC(=O)C(Cc2ccc(OC3OC(CO)C(OC4OC5COC(C6CCCCC6)OC5C(O)C4O)C(O)C3O)cc2)NC1=O (centres unmarked) ?
1 µg/mL

# input molecule: COc1ccc(CC2OCC3OC(OC4C(CO)OC(Oc5ccc(CC6NC(=O)C(C(C)c7ccccc7)NC(=O)CNC(=O)C(CO)NC(=O)C(C(O)C7CNC(=N)N7C7OC(CO)C(O)C(O)C7O)NC(=O)C(C(O)C7CNC(=N)N7)NC6=O)cc5)C(O)C4O)C(O)C(O)C3O2)cc1 (centres unmarked) ; wanted: its MIC Staphylococcus haemolyticus (GC 4546)
1 µg/mL

Consider the molecule shown here: CC(c1ccccc1)C1NC(=O)CNC(=O)C(CO[Si](C)(C)C(C)(C)C)NC(=O)C(C(O)C2CNC(=N)N2C2OC3COC(C)(C)OC3C3OC(C)(C)OC32)NC(=O)C(C(O)C2CNC(=N)N2)NC(=O)C(Cc2ccc(O)cc2)NC1=O (centres unmarked) What is its recorded MIC Staphylococcus haemolyticus (GC 4546)?
16 µg/mL

// lookup MIC Staphylococcus haemolyticus (GC 4546) for CC(C)CC(=O)OC1C(O)C(CO)OC(OC2C(CO)OC(Oc3ccc(CC4NC(=O)C(C(C)c5cccc(F)c5)NC(=O)CNC(=O)C(CO)NC(=O)C(C(O)C5CNC(=N)N5C5OC(CO)C(O)C(O)C5O)NC(=O)C(C(O)C5CNC(=N)N5)NC4=O)cc3)C(O)C2O)C1O (centres unmarked) [Example 264b]
4 µg/mL
